# target.of.assay: MEK4 (Homo sapiens)
# Sequence (P45985 1-399): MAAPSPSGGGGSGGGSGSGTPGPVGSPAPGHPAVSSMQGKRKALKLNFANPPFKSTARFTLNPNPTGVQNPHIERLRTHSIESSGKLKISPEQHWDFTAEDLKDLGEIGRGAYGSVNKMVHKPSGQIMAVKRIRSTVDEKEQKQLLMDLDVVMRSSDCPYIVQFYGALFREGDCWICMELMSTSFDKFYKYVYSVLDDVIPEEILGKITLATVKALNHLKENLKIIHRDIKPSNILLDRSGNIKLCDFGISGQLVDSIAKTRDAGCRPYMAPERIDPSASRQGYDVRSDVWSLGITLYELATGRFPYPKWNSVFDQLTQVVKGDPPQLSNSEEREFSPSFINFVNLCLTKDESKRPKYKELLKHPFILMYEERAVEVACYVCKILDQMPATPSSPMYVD
experimental.endpoint: IC50

Query (compound): CC(=O)c1cc2c(=O)c3c(C(=O)O)c(O)c(O)cc3oc2c(C(C)=O)c1-c1coc2cc(O)c(O)c(C(=O)O)c2c1=O ; field requested: IC50 > 10 µM

###

# target.of.assay: Flt1 (Homo sapiens)
# Sequence (P17948 27-1338, species assumed): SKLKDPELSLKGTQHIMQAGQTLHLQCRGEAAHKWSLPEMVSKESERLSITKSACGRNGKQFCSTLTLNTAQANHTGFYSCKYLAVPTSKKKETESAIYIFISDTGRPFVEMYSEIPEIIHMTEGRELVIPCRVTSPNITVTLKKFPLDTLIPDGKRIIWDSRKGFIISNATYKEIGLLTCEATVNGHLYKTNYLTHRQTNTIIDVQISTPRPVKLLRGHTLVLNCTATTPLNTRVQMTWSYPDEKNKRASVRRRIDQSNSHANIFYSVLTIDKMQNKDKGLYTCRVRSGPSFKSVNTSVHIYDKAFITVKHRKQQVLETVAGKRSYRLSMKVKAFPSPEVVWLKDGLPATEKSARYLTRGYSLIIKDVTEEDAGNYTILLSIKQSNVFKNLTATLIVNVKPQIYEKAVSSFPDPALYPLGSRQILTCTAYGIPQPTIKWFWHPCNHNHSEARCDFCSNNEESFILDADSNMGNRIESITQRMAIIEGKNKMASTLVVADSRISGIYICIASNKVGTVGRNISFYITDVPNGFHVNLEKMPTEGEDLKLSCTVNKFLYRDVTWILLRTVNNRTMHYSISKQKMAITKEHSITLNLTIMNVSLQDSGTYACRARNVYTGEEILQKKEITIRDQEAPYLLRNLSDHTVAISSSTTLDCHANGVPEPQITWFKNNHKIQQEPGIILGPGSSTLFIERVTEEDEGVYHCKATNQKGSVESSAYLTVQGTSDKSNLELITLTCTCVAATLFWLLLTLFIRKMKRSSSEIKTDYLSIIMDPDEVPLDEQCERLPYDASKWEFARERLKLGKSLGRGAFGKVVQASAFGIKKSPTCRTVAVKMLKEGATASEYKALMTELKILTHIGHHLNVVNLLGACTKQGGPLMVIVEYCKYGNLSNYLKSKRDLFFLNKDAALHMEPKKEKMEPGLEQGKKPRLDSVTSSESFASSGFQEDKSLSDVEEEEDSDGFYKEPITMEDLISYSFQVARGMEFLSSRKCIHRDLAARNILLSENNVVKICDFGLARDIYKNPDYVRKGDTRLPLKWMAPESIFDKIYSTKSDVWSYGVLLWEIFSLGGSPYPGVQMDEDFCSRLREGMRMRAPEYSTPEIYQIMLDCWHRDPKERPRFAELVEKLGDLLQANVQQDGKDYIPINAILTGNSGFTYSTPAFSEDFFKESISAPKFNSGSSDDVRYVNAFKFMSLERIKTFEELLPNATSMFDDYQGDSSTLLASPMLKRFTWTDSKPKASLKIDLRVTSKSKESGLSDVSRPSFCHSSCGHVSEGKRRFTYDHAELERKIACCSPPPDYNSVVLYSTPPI
pIC50: −log10 of the molar value.
experimental.endpoint: pIC50

Query (molecule): CC(=O)c1cc2c(=O)c3c(C(=O)O)c(O)c(O)cc3oc2c(C(C)=O)c1-c1coc2cc(O)c(O)c(C(=O)O)c2c1=O [SM-345431, Vinaxanthone] ; field requested: pIC50 < 5.00

###

# target.of.assay: Chemokine CCR5 (Homo sapiens)
# Sequence (P51681 whole entry): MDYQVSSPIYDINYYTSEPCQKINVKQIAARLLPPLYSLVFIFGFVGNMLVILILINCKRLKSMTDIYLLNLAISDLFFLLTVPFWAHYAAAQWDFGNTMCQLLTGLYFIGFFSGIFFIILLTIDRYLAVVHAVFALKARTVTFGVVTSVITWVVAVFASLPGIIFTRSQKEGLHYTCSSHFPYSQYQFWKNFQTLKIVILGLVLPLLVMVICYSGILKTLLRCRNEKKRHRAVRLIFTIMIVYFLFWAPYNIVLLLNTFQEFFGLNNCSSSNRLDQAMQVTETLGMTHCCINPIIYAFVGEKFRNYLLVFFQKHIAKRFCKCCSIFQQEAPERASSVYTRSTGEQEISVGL
pIC50: −log10 of the molar value.
experimental.endpoint: pIC50

Query (compound): CC(=O)c1cc2c(=O)c3c(C(=O)O)c(O)c(O)cc3oc2c(C(C)=O)c1-c1coc2cc(O)c(O)c(C(=O)O)c2c1=O [SM-345431, Vinaxanthone] ; field requested: pIC50 < 5.00

###

# target.of.assay: PKBα (Homo sapiens, UniProt P31749)
# Sequence (P31749 whole entry, species assumed): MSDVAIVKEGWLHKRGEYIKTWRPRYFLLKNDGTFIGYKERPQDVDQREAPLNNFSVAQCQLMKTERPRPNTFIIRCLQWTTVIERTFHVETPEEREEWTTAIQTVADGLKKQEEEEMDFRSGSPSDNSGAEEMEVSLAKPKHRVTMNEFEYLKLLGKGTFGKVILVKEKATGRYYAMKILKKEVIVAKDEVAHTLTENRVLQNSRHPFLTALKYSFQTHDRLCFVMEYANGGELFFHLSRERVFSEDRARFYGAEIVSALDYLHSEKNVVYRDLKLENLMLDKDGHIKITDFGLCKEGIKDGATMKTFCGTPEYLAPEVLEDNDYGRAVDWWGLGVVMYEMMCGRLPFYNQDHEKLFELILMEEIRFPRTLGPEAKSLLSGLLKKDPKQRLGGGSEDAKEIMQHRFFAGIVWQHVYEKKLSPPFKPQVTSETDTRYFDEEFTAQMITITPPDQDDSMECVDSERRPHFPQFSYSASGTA
experimental.endpoint: IC50

Query (compound): CC(=O)c1cc2c(=O)c3c(C(=O)O)c(O)c(O)cc3oc2c(C(C)=O)c1-c1coc2cc(O)c(O)c(C(=O)O)c2c1=O ; field requested: IC50 > 10 µM

###

# target.of.assay: FGFR2 (Homo sapiens, UniProt P21802)
# Sequence (P21802 22-821, species assumed): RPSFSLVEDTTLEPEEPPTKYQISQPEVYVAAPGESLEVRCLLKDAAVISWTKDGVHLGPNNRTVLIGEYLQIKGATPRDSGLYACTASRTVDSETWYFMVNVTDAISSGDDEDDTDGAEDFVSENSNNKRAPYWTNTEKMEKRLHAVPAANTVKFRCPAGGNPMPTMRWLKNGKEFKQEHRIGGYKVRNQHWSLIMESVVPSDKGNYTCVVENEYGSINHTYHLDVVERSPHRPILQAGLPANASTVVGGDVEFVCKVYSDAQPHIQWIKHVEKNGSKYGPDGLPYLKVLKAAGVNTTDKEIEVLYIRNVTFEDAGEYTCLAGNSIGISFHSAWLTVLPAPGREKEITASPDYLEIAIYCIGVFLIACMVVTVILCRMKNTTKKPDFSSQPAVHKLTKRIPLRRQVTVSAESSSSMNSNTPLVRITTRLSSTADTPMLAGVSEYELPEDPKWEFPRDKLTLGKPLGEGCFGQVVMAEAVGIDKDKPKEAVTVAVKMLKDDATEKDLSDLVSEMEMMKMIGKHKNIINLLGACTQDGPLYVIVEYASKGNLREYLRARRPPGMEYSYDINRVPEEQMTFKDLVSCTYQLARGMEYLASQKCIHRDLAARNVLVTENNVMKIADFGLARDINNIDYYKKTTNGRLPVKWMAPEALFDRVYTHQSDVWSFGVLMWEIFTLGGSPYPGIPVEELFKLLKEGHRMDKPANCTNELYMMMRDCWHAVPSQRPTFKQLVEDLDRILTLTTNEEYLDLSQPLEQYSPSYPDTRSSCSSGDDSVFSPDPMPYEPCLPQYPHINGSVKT
experimental.endpoint: IC50

Query (compound): CC(=O)c1cc2c(=O)c3c(C(=O)O)c(O)c(O)cc3oc2c(C(C)=O)c1-c1coc2cc(O)c(O)c(C(=O)O)c2c1=O ; field requested: IC50 > 10 µM

###

# target.of.assay: CaMKII
# assay.overview: Kinase inhibition test
experimental.endpoint: IC50

Query (compound): CC(=O)c1cc2c(=O)c3c(C(=O)O)c(O)c(O)cc3oc2c(C(C)=O)c1-c1coc2cc(O)c(O)c(C(=O)O)c2c1=O [SM-345431, Vinaxanthone] ; field requested: IC50 > 10 µM

###

# target.of.assay: UniProt P25025
# Sequence (P25025 whole entry): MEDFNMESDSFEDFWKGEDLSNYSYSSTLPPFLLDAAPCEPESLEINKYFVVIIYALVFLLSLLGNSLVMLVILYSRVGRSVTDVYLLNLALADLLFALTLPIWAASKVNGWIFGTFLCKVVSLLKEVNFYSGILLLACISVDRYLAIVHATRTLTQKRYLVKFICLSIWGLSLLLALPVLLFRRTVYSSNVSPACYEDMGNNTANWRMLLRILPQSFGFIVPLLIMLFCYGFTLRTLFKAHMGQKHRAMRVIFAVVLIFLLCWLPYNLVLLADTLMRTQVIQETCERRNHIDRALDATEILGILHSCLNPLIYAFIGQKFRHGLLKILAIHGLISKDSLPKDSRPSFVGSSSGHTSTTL
pIC50: −log10 of the molar value.
experimental.endpoint: pIC50

Query (compound): CC(=O)c1cc2c(=O)c3c(C(=O)O)c(O)c(O)cc3oc2c(C(C)=O)c1-c1coc2cc(O)c(O)c(C(=O)O)c2c1=O ; field requested: pIC50 < 5.00

###

# target.of.assay: CDK5/p35 (Homo sapiens, UniProt Q00535)
# Sequence (Q00535 whole entry, species assumed): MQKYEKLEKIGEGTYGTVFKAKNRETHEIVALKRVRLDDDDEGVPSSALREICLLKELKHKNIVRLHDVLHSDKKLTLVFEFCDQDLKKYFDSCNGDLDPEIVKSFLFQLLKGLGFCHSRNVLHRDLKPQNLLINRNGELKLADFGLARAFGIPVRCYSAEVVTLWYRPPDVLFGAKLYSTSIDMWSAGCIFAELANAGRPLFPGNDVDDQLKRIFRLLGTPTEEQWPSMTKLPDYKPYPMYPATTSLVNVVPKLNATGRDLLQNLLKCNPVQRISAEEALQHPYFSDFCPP
# Sequence (Q15078 whole entry partner, species assumed): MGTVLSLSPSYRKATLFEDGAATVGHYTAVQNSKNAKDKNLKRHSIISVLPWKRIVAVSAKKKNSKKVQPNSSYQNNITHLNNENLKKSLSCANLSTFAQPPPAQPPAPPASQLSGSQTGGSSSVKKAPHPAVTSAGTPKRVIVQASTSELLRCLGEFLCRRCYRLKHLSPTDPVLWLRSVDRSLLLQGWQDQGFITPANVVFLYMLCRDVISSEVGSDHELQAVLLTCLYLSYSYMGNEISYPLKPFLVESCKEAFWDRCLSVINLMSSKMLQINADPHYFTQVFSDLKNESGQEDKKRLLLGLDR
# assay.overview: Kinase inhibition test
# Assay type: biochemical
pIC50: −log10 of the molar value.
experimental.endpoint: pIC50

Query (compound): CC(=O)c1cc2c(=O)c3c(C(=O)O)c(O)c(O)cc3oc2c(C(C)=O)c1-c1coc2cc(O)c(O)c(C(=O)O)c2c1=O ; field requested: pIC50 < 5.00
